Values compiled from ChEMBL document CHEMBL4043200.

target-entity: Phosphatidylinositol 4,5-bisphosphate 3-kinase catalytic subunit beta isoform (Homo sapiens)
protocol-text: Inhibition of wild type PI3K-beta (unknown origin) assessed as decrease in ATP consumption at 10 uM using phosphotidylinositol bisphosphate and ATP measured after 60 mins by Kinase-Glo reagent based luminescence assay
measure: inhibition (%)
Respond with the bare value in %.

Here are 4 compounds together with their reported answers.
Using the record for O=c1nc(N2CCOCC2)oc2c(-c3ccccc3)c(OCc3cccnc3)ccc12 , report its inhibition.
64.4

For the compound shown here, O=c1nc(N2CCOCC2)oc2c(-c3ccc(Cl)cc3)c(OCc3cccnc3)ccc12 , give the reported inhibition.
53.2

Tell me the measured inhibition of Nc1cccc(-c2c(OCc3ccccn3)ccc3c(=O)nc(N4CCOCC4)oc23)c1 , please.
65.5

Param item = CN1CCN(CCOc2ccc3c(=O)nc(N4CCOCC4)oc3c2-c2ccccc2)CC1 ; retrieve measured inhibition.
31.8

Now examine the next entry.
What measured inhibition goes with O=c1nc(N2CCOCC2)oc2c(-c3ccc(Cl)cc3)c(OCc3ccccc3)ccc12 ?
11

* * *

target-entity: DNA-dependent protein kinase catalytic subunit (Homo sapiens, UniProt P78527)
protocol-text: Inhibition of human DNA-PK catalytic subunit at 10 uM using DNA and [EPPLSQEAFADLWKK] peptide substrate by HTRF assay
Each entry falls into one class according to its inhibition; the ranges are lower range (below 20%), middle range (20% to below 40%), upper range (40% or more)

Textbook exercise: identify the category of the compound given here, O=c1nc(N2CCOCC2)oc2c(-c3cc4ccccc4s3)c(OCc3ccccn3)ccc12 , according to its measured value.
upper range

Which class is correct for the following compound? O=c1nc(N2CCOCC2)oc2c(-c3cc4ccccc4s3)c(OCc3cccnc3)ccc12
lower range

Exam item: assign COc1ccc(-c2c(OCc3ccccn3)ccc3c(=O)nc(N4CCOCC4)oc23)cc1 to the correct category.
middle range

Consider O=c1nc(N2CCOCC2)oc2c(-c3cccc4c3oc3ccccc34)c(OCc3ccccc3)ccc12 . To which inhibition class does it belong?
upper range

Could you tell me which band O=c1nc(N2CCOCC2)oc2c(-c3ccc(Cl)cc3)c(OCc3ccccn3)ccc12 belongs to?
middle range

Further cases:
Bin this entry: O=c1nc(N2CCOCC2)oc2c(-c3ccccc3)c(OCc3cccnc3)ccc12
lower range

Which inhibition category applies to O=c1nc(N2CCOCC2)oc2c(-c3ccccc3)c(OCc3ccccn3)ccc12 here?
middle range

Consider O=c1nc(N2CCOCC2)oc2c(-c3cccs3)c(OCc3cccnc3)ccc12 . To which inhibition class does it belong?
middle range

Using the reported inhibition, which band applies to CN1CCN(CCOc2ccc3c(=O)nc(N4CCOCC4)oc3c2-c2ccccc2)CC1 ?
lower range

Which category does the recorded inhibition put COc1ccc(-c2c(OCCBr)ccc3c(=O)nc(N4CCOCC4)oc23)cc1 in?
upper range

Category lookup for the compound Nc1cccc(-c2c(OCc3cccnc3)ccc3c(=O)nc(N4CCOCC4)oc23)c1
lower range

Class label required: O=c1nc(N2CCOCC2)oc2c(-c3ccsc3)c(OCc3ccccc3)ccc12
upper range

Class (by measured inhibition) for O=c1nc(N2CCOCC2)oc2c(-c3ccc(CO)cc3)c(OCc3ccccc3)ccc12
middle range

Bin? O=c1nc(N2CCOCC2)oc2c(-c3ccc(Cl)cc3)c(OCc3ccccc3)ccc12
middle range

Category lookup for the compound COc1ccc(-c2c(OCc3ccncc3)ccc3c(=O)nc(N4CCOCC4)oc23)cc1
middle range

* * *

target-entity: Phosphatidylinositol 4,5-bisphosphate 3-kinase catalytic subunit alpha isoform (Homo sapiens) (UniProt P42336)
Sequence (P42336 whole entry, canonical isoform): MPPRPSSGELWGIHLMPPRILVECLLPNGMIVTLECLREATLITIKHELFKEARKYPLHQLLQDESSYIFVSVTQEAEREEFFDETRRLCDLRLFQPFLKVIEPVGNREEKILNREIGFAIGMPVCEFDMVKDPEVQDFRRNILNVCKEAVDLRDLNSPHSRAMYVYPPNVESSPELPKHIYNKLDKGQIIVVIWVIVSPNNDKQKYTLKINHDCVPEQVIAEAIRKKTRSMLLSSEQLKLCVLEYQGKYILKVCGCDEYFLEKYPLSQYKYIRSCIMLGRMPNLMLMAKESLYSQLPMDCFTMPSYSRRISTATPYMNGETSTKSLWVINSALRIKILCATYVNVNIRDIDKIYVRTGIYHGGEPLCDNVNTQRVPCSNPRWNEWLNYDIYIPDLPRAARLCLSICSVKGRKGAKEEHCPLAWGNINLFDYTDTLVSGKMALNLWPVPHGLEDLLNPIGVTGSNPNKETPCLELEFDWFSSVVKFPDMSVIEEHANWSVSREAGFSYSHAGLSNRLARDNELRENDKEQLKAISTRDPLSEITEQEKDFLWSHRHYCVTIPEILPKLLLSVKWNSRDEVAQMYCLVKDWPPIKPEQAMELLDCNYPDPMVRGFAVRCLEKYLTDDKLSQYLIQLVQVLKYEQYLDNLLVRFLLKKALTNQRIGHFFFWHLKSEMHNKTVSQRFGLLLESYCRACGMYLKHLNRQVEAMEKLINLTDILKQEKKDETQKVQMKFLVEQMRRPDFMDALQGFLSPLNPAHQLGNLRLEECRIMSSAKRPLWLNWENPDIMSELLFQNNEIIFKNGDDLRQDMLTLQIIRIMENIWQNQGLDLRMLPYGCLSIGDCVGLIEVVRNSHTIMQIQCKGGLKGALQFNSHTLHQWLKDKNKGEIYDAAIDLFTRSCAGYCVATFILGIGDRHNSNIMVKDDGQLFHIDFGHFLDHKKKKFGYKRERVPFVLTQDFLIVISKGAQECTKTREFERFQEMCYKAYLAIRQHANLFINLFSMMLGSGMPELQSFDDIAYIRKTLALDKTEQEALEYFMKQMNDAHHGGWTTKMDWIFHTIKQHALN
protocol-text: Inhibition of wild type PI3K-alpha (unknown origin) assessed as decrease in ATP consumption at 10 uM using phosphotidylinositol bisphosphate and ATP measured after 60 mins by Kinase-Glo reagent based luminescence assay
measure: inhibition (%)
Express the result in % but write the number alone.

Field: example entries. Status: answers known.
What measured inhibition goes with Nc1cccc(-c2c(OCc3cccnc3)ccc3c(=O)nc(N4CCOCC4)oc23)c1 ?
18.4

Dear colleague, I am looking for the recorded inhibition of the following compound: CN1CCN(CCOc2ccc3c(=O)nc(N4CCOCC4)oc3c2-c2ccc(Cl)cc2)CC1
12.7

Return reported inhibition; argument: O=c1nc(N2CCOCC2)oc2c(-c3ccc(Cl)cc3)c(OCc3ccncc3)ccc12
28.7

New cases:
Look up inhibition for this compound: COc1ccc(-c2c(OCc3ccncc3)ccc3c(=O)nc(N4CCOCC4)oc23)cc1
36.2

Which inhibition is listed for O=c1nc(N2CCOCC2)oc2c(-c3ccccc3)c(OCc3ccccn3)ccc12 ?
59.2

State the recorded inhibition for this entry: O=c1nc(N2CCOCC2)oc2c(-c3ccccc3)c(OCc3ccncc3)ccc12
46.1

What value of measured inhibition is listed for O=c1nc(N2CCOCC2)oc2c(-c3ccsc3)c(OCc3ccccc3)ccc12 ?
4.8

Any idea what its inhibition is? The compound is O=c1nc(N2CCOCC2)oc2c(-c3ccccc3)c(OCCBr)ccc12
40.7

Tell me the measured inhibition of O=c1nc(N2CCOCC2)oc2c(-c3cccs3)c(OCc3ccccc3)ccc12 , please.
-9.9

Please give the measured inhibition for this compound: O=c1nc(N2CCOCC2)oc2c(-c3ccsc3)c(OCc3cccnc3)ccc12
-3.3

Would you mind telling me what inhibition value was observed for O=c1nc(N2CCOCC2)oc2c(-c3cccs3)c(OCc3ccccn3)ccc12 ?
-0.6

Given the compound O=c1nc(N2CCOCC2)oc2c(-c3cc4ccccc4s3)c(OCc3ccccc3)ccc12 , what is its reported inhibition?
-7.3

Can you look up the measured inhibition of O=c1nc(N2CCOCC2)oc2c(-c3ccc(Cl)cc3)c(OCc3ccccn3)ccc12 for me?
28.6

* * *

target-entity: cGMP-inhibited 3',5'-cyclic phosphodiesterase 3A (Homo sapiens, UniProt Q14432)
Sequence (Q14432 whole entry): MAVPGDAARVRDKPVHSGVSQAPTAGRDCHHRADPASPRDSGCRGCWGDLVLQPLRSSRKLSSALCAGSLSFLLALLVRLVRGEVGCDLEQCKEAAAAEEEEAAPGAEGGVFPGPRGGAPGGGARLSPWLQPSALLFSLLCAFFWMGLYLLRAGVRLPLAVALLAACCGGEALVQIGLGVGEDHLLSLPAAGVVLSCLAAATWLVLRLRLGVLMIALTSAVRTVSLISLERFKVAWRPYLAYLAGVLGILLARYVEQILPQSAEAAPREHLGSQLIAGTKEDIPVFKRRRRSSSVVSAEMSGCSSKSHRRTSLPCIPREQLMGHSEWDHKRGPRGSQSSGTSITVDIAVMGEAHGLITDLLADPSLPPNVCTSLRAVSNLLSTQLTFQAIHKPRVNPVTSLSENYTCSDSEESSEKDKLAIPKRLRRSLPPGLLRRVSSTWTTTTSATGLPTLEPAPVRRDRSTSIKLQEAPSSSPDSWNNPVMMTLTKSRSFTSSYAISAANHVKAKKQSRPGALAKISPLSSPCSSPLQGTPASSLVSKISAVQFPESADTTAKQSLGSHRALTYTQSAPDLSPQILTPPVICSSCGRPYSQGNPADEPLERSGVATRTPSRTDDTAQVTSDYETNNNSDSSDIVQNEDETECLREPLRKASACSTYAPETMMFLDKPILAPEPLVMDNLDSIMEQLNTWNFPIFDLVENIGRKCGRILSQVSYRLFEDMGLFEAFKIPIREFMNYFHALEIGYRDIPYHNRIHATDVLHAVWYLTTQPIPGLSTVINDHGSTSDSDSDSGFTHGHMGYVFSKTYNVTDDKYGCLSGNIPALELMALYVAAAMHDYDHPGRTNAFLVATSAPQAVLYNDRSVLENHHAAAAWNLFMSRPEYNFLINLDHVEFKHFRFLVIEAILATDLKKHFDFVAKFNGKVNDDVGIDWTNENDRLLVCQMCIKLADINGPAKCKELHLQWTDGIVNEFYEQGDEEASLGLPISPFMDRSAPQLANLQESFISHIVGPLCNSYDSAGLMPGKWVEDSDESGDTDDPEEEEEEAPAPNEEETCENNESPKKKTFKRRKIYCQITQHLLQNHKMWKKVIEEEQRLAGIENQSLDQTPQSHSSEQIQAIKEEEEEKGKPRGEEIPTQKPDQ
measure: IC50 (µM)
Numeric answer only, unit µM assumed.

Looking for the measured IC50 of CC(C)Cn1c(=O)n(C)c(=O)c2[nH]cnc21 [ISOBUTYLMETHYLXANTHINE] , can you help?
7

* * *

target-entity: Phosphatidylinositol 4,5-bisphosphate 3-kinase catalytic subunit beta isoform (Homo sapiens) (UniProt P42338)
Sequence (P42338 whole entry, looked up, canonical isoform): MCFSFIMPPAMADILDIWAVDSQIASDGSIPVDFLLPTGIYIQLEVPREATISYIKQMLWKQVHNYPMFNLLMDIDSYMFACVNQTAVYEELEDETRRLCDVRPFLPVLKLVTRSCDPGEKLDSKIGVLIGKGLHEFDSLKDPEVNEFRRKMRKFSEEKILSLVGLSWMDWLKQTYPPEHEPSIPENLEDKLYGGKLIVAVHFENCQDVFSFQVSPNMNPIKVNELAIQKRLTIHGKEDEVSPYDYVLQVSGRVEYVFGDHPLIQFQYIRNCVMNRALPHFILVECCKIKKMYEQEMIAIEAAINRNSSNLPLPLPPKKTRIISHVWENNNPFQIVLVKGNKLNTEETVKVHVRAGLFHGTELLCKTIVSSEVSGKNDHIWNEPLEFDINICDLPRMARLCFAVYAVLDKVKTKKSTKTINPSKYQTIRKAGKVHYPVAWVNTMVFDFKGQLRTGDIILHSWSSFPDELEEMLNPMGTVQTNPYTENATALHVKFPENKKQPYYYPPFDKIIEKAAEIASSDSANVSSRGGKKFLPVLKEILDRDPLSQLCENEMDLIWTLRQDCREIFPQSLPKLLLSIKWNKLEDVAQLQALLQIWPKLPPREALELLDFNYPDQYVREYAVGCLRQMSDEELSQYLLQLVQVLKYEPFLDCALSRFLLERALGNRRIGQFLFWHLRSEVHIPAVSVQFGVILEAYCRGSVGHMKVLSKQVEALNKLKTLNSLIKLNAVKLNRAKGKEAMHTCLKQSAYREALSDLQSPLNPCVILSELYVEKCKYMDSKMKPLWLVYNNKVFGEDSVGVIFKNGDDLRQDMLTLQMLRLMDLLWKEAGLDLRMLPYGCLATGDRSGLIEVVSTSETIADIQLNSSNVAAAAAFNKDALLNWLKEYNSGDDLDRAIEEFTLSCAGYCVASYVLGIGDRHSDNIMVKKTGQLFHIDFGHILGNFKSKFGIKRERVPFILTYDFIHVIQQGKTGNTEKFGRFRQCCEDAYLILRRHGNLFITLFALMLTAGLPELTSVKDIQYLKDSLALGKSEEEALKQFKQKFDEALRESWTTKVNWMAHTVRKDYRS
protocol-text: Inhibition of wild type PI3K-beta (unknown origin) assessed as decrease in ATP consumption at 10 uM using phosphotidylinositol bisphosphate and ATP measured after 60 mins by Kinase-Glo reagent based luminescence assay
Classify as follows. Reported inhibition greater than or equal to 20%: true. Reported inhibition below: false.

Before answering, review these 2 worked examples.
Please check the record O=c1nc(N2CCOCC2)oc2c(-c3cc4ccccc4s3)c(OCc3cccnc3)ccc12 and state if its inhibition is at or above 20%.
false

State whether the measured inhibition reaches 20%, counting equality as reaching it, for O=c1nc(N2CCOCC2)oc2c(-c3ccsc3)c(OCc3ccccc3)ccc12
true

Further cases:
Does the molecule O=c1nc(N2CCOCC2)oc2c(-c3cccs3)c(OCc3cccnc3)ccc12 have recorded inhibition that is 20% or more?
false

* * *

target-entity: Phosphatidylinositol 4,5-bisphosphate 3-kinase catalytic subunit delta isoform (Homo sapiens)
protocol-text: Inhibition of wild type PI3K-delta (unknown origin) assessed as decrease in ATP consumption at 10 uM using phosphotidylinositol bisphosphate and ATP measured after 60 mins by Kinase-Glo reagent based luminescence assay
measure: inhibition (%)
Use % as the unit, but write only the number.

Need inhibition of O=c1nc(N2CCOCC2)oc2c(-c3ccc(CO)cc3)c(OCc3ccccc3)ccc12 , thanks.
84.7

Would you kindly share the measured inhibition for O=c1nc(N2CCOCC2)oc2c(-c3cc4ccccc4s3)c(OCc3ccncc3)ccc12 ?
27.2

Name the recorded inhibition for O=c1nc(N2CCOCC2)oc2c(-c3cccc4c3sc3ccccc34)c(OCc3ccccc3)ccc12 .
6.3

# get_value(readout='inhibition', item= O=c1nc(N2CCOCC2)oc2c(-c3ccccc3)c(OCCBr)ccc12 )
75.9

Tell me the measured inhibition of COc1ccc(-c2c(OCc3ccccc3)ccc3c(=O)nc(N4CCOCC4)oc23)cc1 , please.
65.7

***
Returns the measured inhibition for the input compound. Input: Nc1cccc(-c2c(OCc3ccccn3)ccc3c(=O)nc(N4CCOCC4)oc23)c1
47.6

Which inhibition is reported for this compound? O=c1nc(N2CCOCC2)oc2c(-c3cccc4c3Sc3ccccc3S4)c(OCc3ccccc3)ccc12
-1

For the compound O=c1nc(N2CCOCC2)oc2c(-c3ccc(Cl)cc3)c(OCc3ccccc3)ccc12 , what inhibition is on record?
27.4

So what's the measured inhibition for this one? O=c1nc(N2CCOCC2)oc2c(-c3ccc(Cl)cc3)c(OCc3ccncc3)ccc12
63.3

* * *

target-entity: DNA-dependent protein kinase catalytic subunit (Homo sapiens)
protocol-text: Inhibition of human DNA-PK catalytic subunit at 10 uM using DNA and [EPPLSQEAFADLWKK] peptide substrate by HTRF assay
measure: inhibition (%)
Just the number please, in %, no unit attached.

Given the compound O=c1nc(N2CCOCC2)oc2c(-c3ccc(Cl)cc3)c(OCc3cccnc3)ccc12 , what is its reported inhibition?
32.7

I would be grateful if you could share the reported inhibition for COc1ccc(-c2c(OCc3cccnc3)ccc3c(=O)nc(N4CCOCC4)oc23)cc1 .
33.5

Name the reported inhibition value associated with the compound O=c1nc(N2CCOCC2)oc2c(-c3cccc4c3Sc3ccccc3S4)c(OCc3ccccc3)ccc12
-1.7

// query inhibition value for entry CN1CCN(CCOc2ccc3c(=O)nc(N4CCOCC4)oc3c2-c2ccc(Cl)cc2)CC1
11.6

# query: inhibition of entry O=c1nc(N2CCOCC2)oc2c(-c3cc4ccccc4s3)c(OCc3ccncc3)ccc12
8.7

***
Which inhibition value belongs to Nc1cccc(-c2c(OCc3ccncc3)ccc3c(=O)nc(N4CCOCC4)oc23)c1 ?
10.1

Return reported inhibition; argument: COc1ccc(-c2c(OCCN3CCN(C)CC3)ccc3c(=O)nc(N4CCOCC4)oc23)cc1
18.1

# lookup: inhibition of O=c1nc(N2CCOCC2)oc2c(-c3cccs3)c(OCc3ccncc3)ccc12
39.2

# get_value(readout='inhibition', item= O=c1nc(N2CCOCC2)oc2c(-c3cccc4ccccc34)c(OCc3ccccc3)ccc12 )
4.07
